Test system: Human immunodeficiency virus type 1 reverse transcriptase (Human immunodeficiency virus 1), Q72547 [K103N]
Outcome measure: ID50 (µM)
Answer format: numeric, µM implied, no suffix.

CCCSc1nc(C(C)c2c(F)cccc2F)c(CC)c(=O)[nH]1 (racemic); 0.43
CCCSc1nc(C(CC)c2c(F)cccc2Cl)c(C)c(=O)[nH]1 (racemic); 0.63
CCc1c(C(C)c2c(F)cccc2Cl)nc(SC(C)CC)[nH]c1=O (racemic); 2.4
CCCSc1nc(C(C)c2c(F)cccc2F)c(C)c(=O)[nH]1 (racemic); 0.38

From here, focus on the item given below.
Lab book: ID50 of CCCCSc1nc(C(CC)c2c(F)cccc2Cl)c(C)c(=O)[nH]1 (racemic) noted as 1

----------
# ID50 listing for each entry below
System: Human immunodeficiency virus type 1 reverse transcriptase (Human immunodeficiency virus 1), Q72547 [L100I]
Answer format: numeric, nM implied, no suffix.

These recorded examples may help you get a feel for the data.
CCCSc1nc(C(CC)c2c(F)cccc2Cl)c(C)c(=O)[nH]1 (racemic); 240
CCc1c(C(C)c2c(F)cccc2Cl)nc(SC(C)C)[nH]c1=O (racemic); 1100
Cc1c(C(C)c2c(F)cccc2F)nc(SC2CCCC2)[nH]c1=O (racemic); 300
CCCCSc1nc(C(CC)c2c(F)cccc2Cl)c(C)c(=O)[nH]1 (racemic); 260
CCCCSc1nc(C(C)c2c(F)cccc2Cl)c(C)c(=O)[nH]1 (racemic); 156

Lab book: ID50 of Cc1c(O)nc(SC(C)C)nc1C(C)c1c(F)cccc1F (racemic) noted as 280

Lab book: ID50 of CC(C)Sc1nc(C(C)c2c(F)cccc2Cl)cc(=O)[nH]1 (racemic) noted as 340

----------
System: Human immunodeficiency virus 1
Test details: Antiviral activity against HIV-1 harboring NNTRI-resistant reverse transcriptase K103N mutant infected in human MT4 cells assessed as inhibition of virus-induced cytopathic effect by MTT method
Assay type: functional, organism-based
Condition parameters: Human immunodeficiency virus 1, MT4
# EC50 listing for each entry below
Answer format: numeric, nM implied, no suffix.

CC[C@@H](C)Sc1nc([C@@H](C)c2c(F)cccc2Cl)cc(=O)[nH]1; 5560
Cc1c(C(C)c2c(F)cccc2Cl)nc(SC2CCCC2)[nH]c1=O (racemic); 93
CCC(C)Sc1nc(C(C)c2c(F)cccc2Cl)c(C)c(=O)[nH]1 (racemic); 320

# lookup: CCC(C)Sc1nc(O)c(C)c(C(C)c2c(F)cccc2F)n1 (racemic) on Human immunodeficiency virus 1, EC50 = 110

# lookup: CCC(C)Sc1nc(C(CC)c2c(F)cccc2F)c(C)c(=O)[nH]1 (racemic) on Human immunodeficiency virus 1, EC50 = 200

# lookup: CCCCSc1nc(C(C)c2c(F)cccc2Cl)c(C)c(=O)[nH]1 (racemic) on Human immunodeficiency virus 1, EC50 = 660

# lookup: CCCCSc1nc(Cc2c(F)cccc2Cl)cc(=O)[nH]1 on Human immunodeficiency virus 1, EC50 = 29200

# lookup: CCCCSc1nc(C(C)c2c(F)cccc2Cl)cc(=O)[nH]1 (racemic) on Human immunodeficiency virus 1, EC50 = 1100

# lookup: CCC(c1nc(SC2CCCC2)[nH]c(=O)c1C)c1c(F)cccc1F (racemic) on Human immunodeficiency virus 1, EC50 = 1000

# lookup: CCCSc1nc(Cc2c(F)cccc2Cl)c(C)c(=O)[nH]1 on Human immunodeficiency virus 1, EC50 = 9200

----------
# Ratio listing for each entry below
Test system: Human immunodeficiency virus 1
Test details: Fold resistance, ratio of ID50 for HIV-1 recombinant NNTRI-resistant reverse transcriptase L100I mutant to ID50 for wild type HIV-1 recombinant reverse transcriptase
Could you keep your reply to the number by itself?

These recorded examples may help you get a feel for the data.
CC[C@H](C)Sc1nc([C@@H](C)c2c(F)cccc2Cl)c(C)c(=O)[nH]1; 0.2
CC[C@H](C)Sc1nc([C@H](C)c2c(F)cccc2Cl)c(C)c(=O)[nH]1 (racemic); 0.1
CCC(C)Sc1nc(C(C)c2c(F)cccc2Cl)cc(=O)[nH]1 (racemic); 25
CC[C@@H](C)Sc1nc([C@H](C)c2c(F)cccc2Cl)cc(=O)[nH]1; 18
CCCSc1nc(C(CC)c2c(F)cccc2F)c(C)c(=O)[nH]1 (racemic); 37

Lab book: Ratio of CCCCSc1nc(C(C)c2c(F)cccc2Cl)c(C)c(=O)[nH]1 (racemic) noted as 52

Lab book: Ratio of CCCCSc1nc(C(C)c2c(F)cccc2Cl)cc(=O)[nH]1 (racemic) noted as 60

Lab book: Ratio of CC[C@H](C)Sc1nc([C@H](C)c2c(F)cccc2Cl)cc(=O)[nH]1 (racemic) noted as 24

----------
Test details: Cytotoxicity against human MT4 cells assessed as induction of cell death by MTT method
Assay type: cell-based
# CC50 listing for each entry below

These recorded examples may help you get a feel for the data.
CCCSc1nc(C(C)c2c(F)cccc2Cl)cc(=O)[nH]1 (racemic); > 75 µM
CCC(c1nc(SC(C)C)[nH]c(=O)c1C)c1c(F)cccc1F (racemic); > 30 µM
Cc1c([C@H](C)c2c(F)cccc2Cl)nc(SC(C)C)[nH]c1=O; > 23.5 µM
CCCSc1nc(C(C)c2c(F)cccc2Cl)c(CC)c(=O)[nH]1 (racemic); > 3 µM
CCCCSc1nc(C(CC)c2c(F)cccc2F)c(C)c(=O)[nH]1 (racemic); > 3 µM
CCCSc1nc(C(CC)c2c(F)cccc2Cl)c(C)c(=O)[nH]1 (racemic); > 3 µM
CCC(C)Sc1nc(C(C)c2c(F)cccc2Cl)cc(=O)[nH]1 (racemic); > 73 µM
Cc1c(C(C)c2c(F)cccc2Cl)nc(SC(C)C)[nH]c1=O (racemic); > 15 µM

Lab book: CC50 of Cc1c(C(C)c2c(F)cccc2F)nc(SC(C)C)[nH]c1=O (racemic) noted as > 3 µM

Lab book: CC50 of CCCSc1nc(C(C)c2c(F)cccc2F)c(C)c(=O)[nH]1 (racemic) noted as > 3 µM

Lab book: CC50 of CCc1c(C(C)c2c(F)cccc2F)nc(SC2CCCC2)[nH]c1=O (racemic) noted as > 3 µM

Lab book: CC50 of Cc1c(Cc2c(F)cccc2Cl)nc(SC(C)C)[nH]c1=O noted as > 76 µM

----------
Tested on: Human immunodeficiency virus type 1 reverse transcriptase (Human immunodeficiency virus 1), Q72547 [K103N]
# ID50 listing for each entry below
I'd appreciate it if you wrote the number followed by its unit.

These recorded examples may help you get a feel for the data.
CCCCSc1nc(O)c(C)c(C(C)c2c(F)cccc2F)n1 (racemic); 0.45 µM
CC(C)Sc1nc(C(C)c2c(F)cccc2Cl)cc(=O)[nH]1 (racemic); 1.3 µM
CCC(C)Sc1nc(C(CC)c2c(F)cccc2Cl)c(C)c(=O)[nH]1 (racemic); 0.45 µM
CC(c1cc(=O)[nH]c(SC2CCCC2)n1)c1c(F)cccc1Cl (racemic); 1.8 µM

Lab book: ID50 of CCc1c(C(C)c2c(F)cccc2Cl)nc(SC(C)C)[nH]c1=O (racemic) noted as 2.6 µM

Lab book: ID50 of CCCSc1nc(C(CC)c2c(F)cccc2F)c(C)c(=O)[nH]1 (racemic) noted as 0.42 µM

Lab book: ID50 of CCC(c1nc(SC2CCCC2)[nH]c(=O)c1C)c1c(F)cccc1F (racemic) noted as 0.38 µM

Lab book: ID50 of Cc1c(O)nc(SC(C)C)nc1C(C)c1c(F)cccc1F (racemic) noted as 0.58 µM

Lab book: ID50 of CCc1c(C(C)c2c(F)cccc2F)nc(SC(C)C)[nH]c1=O (racemic) noted as 0.83 µM

Lab book: ID50 of CCC(C)Sc1nc(C(CC)c2c(F)cccc2F)c(C)c(=O)[nH]1 (racemic) noted as 0.14 µM

Lab book: ID50 of CCC(c1nc(SC(C)C)[nH]c(=O)c1C)c1c(F)cccc1F (racemic) noted as 0.31 µM

Lab book: ID50 of CCCCSc1nc(C(C)c2c(F)cccc2Cl)c(CC)c(=O)[nH]1 (racemic) noted as 2.3 µM

----------
System: Human immunodeficiency virus 1
Test details: Antiviral activity against HIV-1 harboring NNTRI-resistant reverse transcriptase K103N mutant infected in human MT4 cells assessed as inhibition of virus-induced cytopathic effect by MTT method
Assay type: functional, organism-based
Condition parameters: Human immunodeficiency virus 1, MT4
# pEC50 listing for each entry below
Scale explanation: pEC50 corresponds to minus log10 of a concentration expressed in moles per litre.

These recorded examples may help you get a feel for the data.
CCCCSc1nc(Cc2c(F)cccc2Cl)c(C)c(=O)[nH]1; 4.70
CCCSc1nc(C(CC)c2c(F)cccc2Cl)c(C)c(=O)[nH]1 (racemic); 5.68
CC(C)Sc1nc(C(C)c2c(F)cccc2Cl)cc(=O)[nH]1 (racemic); 5.96
CC[C@H](C)Sc1nc([C@H](C)c2c(F)cccc2Cl)cc(=O)[nH]1 (racemic); 5.91
Cc1c(Cc2c(F)cccc2Cl)nc(SC(C)C)[nH]c1=O; 4.97

Lab book: pEC50 of CCCSc1nc(C(C)c2c(F)cccc2Cl)cc(=O)[nH]1 (racemic) noted as 6.05
